Measured values drawn from the supplement of paper PMC9732359 for this set.

# test-description: protein stability index of a GFP-peptide fusion (yeast GPS) (PSI 1-4); higher = more stable; sorted into four equal gates, so the index is relative within each strain
# test-settings: doa10∆
parameter-measured: protein stability index
Please give the numeric answer without any surrounding text.

LPTPTPTEMEPDLDTEC [SWI1]
2.92
MKPEVEQELAHILLTEL [FAS2]
3.01
SELAGDEELEAEQIDVF [PRP8]
3.08
HPAHVMWSVARAGQRGY [RPL3]
1.68
LIAIVSKLLQTTLKLSP [NUT1]
2.19

Turning now to a further sequence:
Notebook: VDQEMLYEIILAANYLN [SKP1] , protein stability index read as 1.63
